Molecular target: Polyunsaturated fatty acid lipoxygenase ALOX12 (Homo sapiens) (UniProt P18054)
Sequence (P18054 whole entry, looked up): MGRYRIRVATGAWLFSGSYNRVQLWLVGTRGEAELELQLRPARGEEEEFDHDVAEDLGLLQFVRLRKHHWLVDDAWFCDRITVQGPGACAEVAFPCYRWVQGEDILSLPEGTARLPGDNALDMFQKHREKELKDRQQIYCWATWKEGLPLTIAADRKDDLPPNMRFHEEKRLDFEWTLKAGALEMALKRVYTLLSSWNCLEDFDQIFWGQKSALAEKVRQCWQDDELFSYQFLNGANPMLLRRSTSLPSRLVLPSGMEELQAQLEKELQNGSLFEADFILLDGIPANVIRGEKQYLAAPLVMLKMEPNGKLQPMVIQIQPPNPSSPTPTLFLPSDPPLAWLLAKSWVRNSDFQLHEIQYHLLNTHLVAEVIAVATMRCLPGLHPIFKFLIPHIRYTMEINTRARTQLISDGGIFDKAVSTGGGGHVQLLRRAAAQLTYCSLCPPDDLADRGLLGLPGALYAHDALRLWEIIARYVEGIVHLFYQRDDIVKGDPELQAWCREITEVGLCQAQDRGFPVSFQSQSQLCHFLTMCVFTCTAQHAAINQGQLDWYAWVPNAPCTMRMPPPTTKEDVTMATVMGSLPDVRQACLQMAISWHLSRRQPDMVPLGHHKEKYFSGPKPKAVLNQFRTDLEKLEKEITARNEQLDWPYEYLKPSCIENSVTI
Test: Primary qHTS assay for inhibitors of human arachidonate 12S-lipoxygenase (ALOX12): Round 2
Conditions: purified 12hLO, xylenol orange hydroperoxide absorbance; series mostly up to 108 µM
Among all 580,000 compounds or so, about 6,100 (1.1%) were called active. Not shown: some 15% with an inconclusive outcome. Calls come from the whole dose curve; as a rule, active = well fitted inhibition curve with a large enough effect; inconclusive = small, poorly fitted or top-dose-only effect, or another doubt; inactive = no such curve, though single readings can be large or run the other way. What follows is part of a selection rich in actives, with near analogues and random picks from the rest.
Write down the outcome that applies. Available outcomes: active, inactive

CCCCN(C)C(=O)CCNC(=O)Cn1cnc2sc3c(c2c1=O)CCCC3 = inactive
O=C(COC(=O)c1cnccn1)Nc1ccc(Cl)cc1C(F)(F)F = active
Cc1nn(CCc2nc(-c3ccccc3F)cs2)c2[nH]c(=O)cc(C(F)(F)F)c12 = active
CC(=O)c1sc(N2C(=O)c3oc4ccccc4c(=O)c3C2c2ccc(C)cc2)nc1C (configuration not stated) = inactive
CCN1CCC2(CC1)N=C(c1ccc(F)cc1)C(=S)N2C(=O)c1ccc(C)cc1 = active

Can you look up the reported call for "O=C(c1ccco1)N1CCN(Cc2cccc(C(F)(F)F)c2)CC1" for me?
inactive

Same read-out for Cc1ccc2nc(N3C(=O)C(O)=C(C(=O)c4ccco4)C3c3cccc(O)c3)sc2c1 (configuration not stated) ?
active

Same read-out for "Cc1nnc(C(=O)Nc2ccc(C(=O)NCc3ccc4c(c3)OCO4)cc2)s1" ?
inactive

Same read-out for "CC(C)c1ccc(/C=C(/C#N)c2nc3ccccc3[nH]2)cc1" ?
inactive

Same read-out for "CCCOc1ccc(-c2nc(C#N)c(N3CCN(C(=O)c4ccco4)CC3)o2)cc1" ?
inactive

Same read-out for "Cc1nn(-c2ccccc2)c2[nH]c(C(F)(F)F)cc(=O)c12" ?
inactive

Same read-out for "Cc1ccc(C(=O)N2CCC(c3n[nH]c(=O)n3Cc3ccc(F)cc3)CC2)cc1" ?
inactive

----------
Molecular target: Polyunsaturated fatty acid lipoxygenase ALOX12 (Homo sapiens) (UniProt P18054)
Assay: Primary qHTS assay for inhibitors of human arachidonate 12S-lipoxygenase (ALOX12): Round 2
Conditions: purified 12hLO, xylenol orange hydroperoxide absorbance; series mostly up to 108 µM
Screen size: about 580,000 compounds; about 6,100 (1.1%) were called active. About 15% were inconclusive and are not listed. Calls come from the whole dose curve; as a rule, active = well fitted inhibition curve with a large enough effect; inconclusive = small, poorly fitted or top-dose-only effect, or another doubt; inactive = no such curve, though single readings can be large or run the other way. The sample as a whole holds a higher share of actives than the screen did.
Write down the outcome that applies. Available outcomes: active, inactive

Reference set, count: 5
Cc1ccc(/C=C/C(=O)c2cc3ccccc3o2)s1 = inactive
O=S(=O)(c1cc(Cl)ccc1Cl)N1CCN(Cc2ccco2)CC1 = inactive
CCOC(CNC(=O)c1ccc2c(c1)ncn2-c1cccc(C)c1)OCC = inactive
CSc1nnnn1-c1ccc(C(=O)Nc2ccccc2F)cc1 = inactive
CCOC(=O)c1cccc(NC(=O)N2CC[C@@H](CC(=O)N(C)CC#N)[C@@H](CC)C2)c1 = inactive

Can you look up the reported call for "O=C(Nc1ccc2c(c1)CCC2)c1cc2c(s1)CN(C1CC1)C2" for me?
inactive

Same read-out for CCOc1ccc(C(C)NC(=O)Cn2c(=O)c3c(ncn3C)n(C)c2=O)cc1 (stereo not given) ?
inactive

Same read-out for "COc1ccc2[nH]cc(CCNC(=O)CNc3nc(Cl)nc4nc[nH]c34)c2c1" ?
inactive

Same read-out for "O=C(CN1CCN(S(=O)(=O)c2cc(Cl)ccc2Cl)CC1)c1ccc(O)c(O)c1" ?
active

Same read-out for "O=C(CN1CCN(S(=O)(=O)c2cccc(Cl)c2)CC1)N1CCCCC1" ?
inactive

Values were extracted from PubChem BioAssay AID1671190.
